System: HCT-116
Experiment: NCI tumour cell line growth inhibition, 48 h
The source made the active and inactive calls. Rule as the data show it: active = GI50 up to about 1.1 µM and inactive = higher.
Pick one and only one: 1 (yes) = active, 0 (no) = inactive

**Query** Name the outcome recorded for C[N+](C)(C)CCCCCc1c2nc(c(CCCCC[N+](C)(C)C)c3ccc([nH]3)c(CCCCC[N+](C)(C)C)c3nc(c(CCCCC[N+](C)(C)C)c4ccc1[nH]4)C=C3)C=C2 in the assay.
**Result** 0 (no)

**Query** Name the outcome recorded for COC(=O)C1CCC(=O)N1C(c1cc(OC)c(OC)c(OC)c1)c1cc(OC)c(OC)c(OC)c1 (stereo unspecified) in the assay.
**Result** 0 (no)

**Query** Name the outcome recorded for Clc1ccc(C2=Nc3ccccc3SC(c3ccc(Cl)c(Cl)c3)C2)c(Cl)c1 (stereo unspecified) in the assay.
**Result** 0 (no)

**Query** Name the outcome recorded for O=C(O)CCCN/C(=C1\C(=O)C(=O)N(c2ccccc2)C1=O)c1ccccc1 in the assay.
**Result** 0 (no)

**Query** Name the outcome recorded for C=C(CN(C)C)C(=O)c1ccccc1Cl in the assay.
**Result** 0 (no)

**Query** Name the outcome recorded for O=C(O)CC(NC(=O)/C(=C/c1ccccc1O)NC(=O)c1ccccc1)C(=O)O (stereo unspecified) in the assay.
**Result** 0 (no)

**Query** Name the outcome recorded for O=C(CC1(O)C(=O)Nc2ccccc21)c1ccncc1 (stereo unspecified) in the assay.
**Result** 0 (no)

**Query** Name the outcome recorded for O=C1Nc2cccc(Cl)c2/C1=C\c1c(Cl)nc2sccn12 in the assay.
**Result** 0 (no)

**Query** Name the outcome recorded for CCOc1ccc(-n2c(=O)c3nn4c(=O)n(-c5ccc(OCC)cc5)c(=O)c4nn3c2=O)cc1 in the assay.
**Result** 0 (no)

**Query** Name the outcome recorded for CN(C(=O)C12C3C4C5C3C1(C(=O)C13C6C7C8C6C1C8C73)C5C42)C(C)(C)C (stereo unspecified) in the assay.
**Result** 0 (no)

**Query** Name the outcome recorded for Cc1cc([N+](=O)[O-])c(C)c(Br)c1C in the assay.
**Result** 0 (no)

**Query** Name the outcome recorded for COC(=O)c1c(C)c2c(c(C)c1O)OC(=O)c1c(C)cc(O)c(C=O)c1O2 in the assay.
**Result** 0 (no)

**Query** Name the outcome recorded for O=C1CC(O)C=C1Nc1ccc(Cl)cc1 (stereo unspecified) in the assay.
**Result** 0 (no)

**Query** Name the outcome recorded for CCCCCCCCCCCCCCCCCCNc1ccn(C2OC(COP(=O)(O)OC3CC(n4cc(F)c(=O)[nH]c4=O)OC3COP(=O)(O)OCC3OC(n4ccc(N)nc4=O)C(O)C3O)C(O)C2O)c(=O)n1 (stereo unspecified) in the assay.
**Result** 1 (yes)

**Query** Name the outcome recorded for Cc1ccc2nc(-c3ccc(NC(=O)c4ccc(N)cc4)c(S(=O)(=O)O)c3)sc2c1 in the assay.
**Result** 0 (no)

**Query** Name the outcome recorded for COc1ccc2o/c(=N/c3ccccc3)c(C(N)=O)cc2c1 in the assay.
**Result** 0 (no)

**Query** Name the outcome recorded for Cc1cc(O)c(-c2cc(O)c(C)cc2O)cc1O in the assay.
**Result** 0 (no)

**Query** Name the outcome recorded for Cc1ccc(S(=O)(=O)NC(=N)N(C)N=O)cc1 in the assay.
**Result** 0 (no)

**Query** Name the outcome recorded for COC(=O)C1=C(C)C=C(N2CCOCC2)C(C(=O)OC)C1c1ccccc1 (stereo unspecified) in the assay.
**Result** 0 (no)

**Query** Name the outcome recorded for CC1=NN=C(N)N/C1=C\C(Sc1ccc(Cl)cc1)c1ccc(Cl)cc1Cl (stereo unspecified) in the assay.
**Result** 0 (no)

**Query** Name the outcome recorded for CCCCS(=N)(=O)CC[C@H](N)C(=O)O (stereo partly specified) [BUTHIONINE SULFOXIME] in the assay.
**Result** 0 (no)

====

Exercise: for every item that follows, state its recorded GI50.
System: UACC-62
Experiment: NCI tumour cell line growth inhibition, 48 h
Calls of active or inactive are those of the source. Rule as the data show it: active = GI50 up to about 1.1 µM and inactive = higher.

Short answer for Cc1ccc(S(=O)(=O)NC(=N)N(C)N=O)cc1 : GI50 was 26.4 µM (inactive)

Short answer for CCOC(=O)NC(Nc1ccc(S(=O)(=O)Nc2nc(C)cc(C)n2)cc1)(C(=O)OCC)C(F)(F)F (stereo not drawn) : GI50 was > 100 µM (inactive)

Short answer for CCOC(=O)c1nc2cc(C(F)(F)F)ccc2nc1Oc1ccc(C#N)cc1 : GI50 was > 100 µM (inactive)

====

Test system: SF-539
Experiment: NCI tumour cell line growth inhibition, 48 h
Activity calls are given as the source filed them. Rule as the data show it: active = GI50 up to about 1.1 µM and inactive = higher.
Pick one and only one: yes (1) for active, no (0) for inactive

**Query** Name the outcome recorded for CCC(C)OC(=O)C1C2CCC(O2)C1C(=O)O (configuration not stated) in the assay.
**Result** no (0)

**Query** Name the outcome recorded for CCOC(=O)c1c(CN2CCNCC2)nc2ccc(Cl)cc2c1-c1ccccc1 in the assay.
**Result** no (0)

**Query** Name the outcome recorded for COc1ccccc1NC(=O)CC(=O)n1nc(C)c(/N=N/c2ccccc2C(=O)O)c1C in the assay.
**Result** no (0)

**Query** Name the outcome recorded for CCN(CC)CC(C(=O)Nc1c(C)cccc1C)/C(C)=N\NC(=O)c1ccncc1 (configuration not stated) in the assay.
**Result** no (0)

**Query** Name the outcome recorded for Clc1ccc(SCCCCCCCCCCSc2ccc(Cl)cc2)cc1 in the assay.
**Result** no (0)

**Query** Name the outcome recorded for CC(=O)OCCOCBr in the assay.
**Result** no (0)

**Query** Name the outcome recorded for Cc1ccc(CNc2ccc(Br)cc2)cc1 in the assay.
**Result** no (0)

**Query** Name the outcome recorded for CC(C)=C/C(CC(O)(C(F)(F)F)C(F)(F)F)=N\O in the assay.
**Result** no (0)

**Query** Name the outcome recorded for CCOc1ccc(-n2c(=O)c3nn4c(=O)n(-c5ccc(OCC)cc5)c(=O)c4nn3c2=O)cc1 in the assay.
**Result** no (0)

**Query** Name the outcome recorded for CCOC(=O)C(C(CC(=O)OC)NC(=O)OCc1ccccc1)C1(C)OCCO1 (configuration not stated) in the assay.
**Result** no (0)

**Query** Name the outcome recorded for O=C1NC2C3CC(OCc4ccccc4)(OCc4ccccc4)C2OC3O1 (configuration not stated) in the assay.
**Result** no (0)

**Query** Name the outcome recorded for CCOC(=O)C(NC(=O)CC)(Nc1ccc(S(=O)(=O)Nc2nc(C)cc(C)n2)cc1)C(F)(F)F (configuration not stated) in the assay.
**Result** no (0)

**Query** Name the outcome recorded for O=C(N[C@@H](c1ccccc1)[C@@H](O)C(=O)OCc1ccc([N+](=O)[O-])cc1)c1ccccc1 in the assay.
**Result** no (0)

**Query** Name the outcome recorded for O=C(CC1(O)C(=O)Nc2ccccc21)c1ccc(Cl)cc1Cl (configuration not stated) in the assay.
**Result** no (0)

**Query** Name the outcome recorded for CCOC(=O)C12CN(C34CC5CC(CC(C5)C3)C4)CC(C(=O)OCC)(C1=O)C(c1ccccc1)OC2c1ccccc1 (configuration not stated) in the assay.
**Result** no (0)

**Query** Name the outcome recorded for O=C(O)CCC(NC(=O)c1ccc(Nc2nc3ccccc3nc2C(=O)O)cc1)C(=O)O (configuration not stated) in the assay.
**Result** no (0)

**Query** Name the outcome recorded for COc1cc(/C=C/c2ccc(OC)c(OC)c2)oc(=O)c1 in the assay.
**Result** no (0)

**Query** Name the outcome recorded for CCOC(=O)C1=C(C)N(NC(N)=O)C2(N)N(NC(N)=O)C(C)=C(C(=O)OCC)C12C#N (configuration not stated) in the assay.
**Result** no (0)

**Query** Name the outcome recorded for O=c1c(O)c(-c2cc(O)c(O)c(O)c2)oc2cc(O)cc(O)c12 in the assay.
**Result** no (0)

**Query** Name the outcome recorded for CCOC(=O)c1cc(-n2nnc3ccccc32)cn1C in the assay.
**Result** no (0)

**Query** Name the outcome recorded for COc1cc(C2SC(=N)Nc3c2c(C)nn3C(=O)c2ccc(Cl)cc2)ccc1O (configuration not stated) in the assay.
**Result** no (0)

**Query** Name the outcome recorded for CN(C(=O)C12C3C4C5C3C1(C(=O)C13C6C7C8C6C1C8C73)C5C42)C(C)(C)C (configuration not stated) in the assay.
**Result** no (0)

**Query** Name the outcome recorded for c1ccc2c(c1)N=C(c1cccc3ccccc13)CC(c1cccc3ccccc13)S2 (configuration not stated) in the assay.
**Result** no (0)

**Query** Name the outcome recorded for Cc1c(-c2coc(-c3ccc([N+](=O)[O-])cc3)n2)c(=O)n(-c2ccccc2)n1C in the assay.
**Result** no (0)

**Query** Name the outcome recorded for Cc1ccc(N2CCN(CCC(=O)O)CC2)cc1 in the assay.
**Result** no (0)

**Query** Name the outcome recorded for N#CSCc1nc2ccc(Cl)cc2c(-c2ccccc2)[n+]1[O-] in the assay.
**Result** no (0)

**Query** Name the outcome recorded for C/C(=N\Nc1nc2ccccc2s1)c1ccc2ccccc2n1 in the assay.
**Result** no (0)

**Query** Name the outcome recorded for C[C@H](O)CCC(=O)c1ccoc1 in the assay.
**Result** no (0)

**Query** Name the outcome recorded for NS(=O)(=O)c1ccccc1C(=O)N/N=C(\c1nc2ccc([N+](=O)[O-])cc2[nH]c1=O)C(O)c1ccc([N+](=O)[O-])cc1 (configuration not stated) in the assay.
**Result** no (0)

**Query** Name the outcome recorded for CCOC(=O)CC(=O)Sc1ccccc1 in the assay.
**Result** no (0)

**Query** Name the outcome recorded for O=S(=O)(/C=C/C=C/[S+]([O-])c1ccccc1)c1ccccc1 (configuration not stated) in the assay.
**Result** no (0)

**Query** Name the outcome recorded for COc1cc(OC)c(/C=N\Nc2nc3ccccc3c(=O)n2-c2ccccc2)c(OC)c1 in the assay.
**Result** no (0)

**Query** Name the outcome recorded for CCCN(CCC)C(=O)c1c([N+](=O)[O-])cc(C(F)(F)F)cc1[N+](=O)[O-] in the assay.
**Result** no (0)

**Query** Name the outcome recorded for COC(=O)/C=C/c1c(CC=C(C)C)ncn1C in the assay.
**Result** no (0)

**Query** Name the outcome recorded for Cc1ccc(C(=O)CC(O)(C(F)(F)F)C(F)(F)F)cc1[N+](=O)[O-] in the assay.
**Result** no (0)

**Query** Name the outcome recorded for C/C(=N\NC(=S)N(C)C)c1ccccn1 in the assay.
**Result** yes (1)

**Query** Name the outcome recorded for O=C(O)c1ccn(-c2cccc(-n3ccc(C(=O)O)n3)n2)n1 in the assay.
**Result** no (0)
